pKi: −log10 of the molar value.
Reported pKi against Coagulation factor XI (Homo sapiens), gathered from multiple publications, appears below.
result_type: pKi

Some solved entries appear below for comparison.
# compound, measurement_target, pKi
rows = [
    ("Cn1[nH]c2ccc(-c3ccnc(C(Cc4ccccc4)NC(=O)[C@H]4CC[C@H](CN)CC4)c3)cc2c1=O (mixture of isomers)", "Coagulation factor XI (Homo sapiens)", 6.96),
    ("COC(=O)Nc1ccc2c(c1)CNC(=O)c1cccc(c1)C[C@H](NC(=O)/C=C/c1cc(Cl)ccc1-n1cnnn1)c1nc-2c(Cl)[nH]1", "Coagulation factor XI (Homo sapiens)", 7.04),
    ("COC(=O)Nc1ccc2c(c1)NC(=O)CCc1cccc(c1)C[C@H](NC(=O)/C=C/c1cc(Cl)ccc1-n1cnnn1)c1nc-2c[nH]1", "Coagulation factor XI (Homo sapiens)", 8.82),
    ("C[C@@H]1CCC[C@H](N2CCC(c3c(F)ccc(Cl)c3F)=CC2=O)c2cc(ccn2)-c2nn(C)cc2NC1=O", "Coagulation factor XI (Homo sapiens)", 6.77),
    ("NC[C@H]1CC[C@H](C(=O)NC(Cc2ccccc2)c2cc(-c3cccc(C(=O)O)c3)ccn2)CC1 (mixture of isomers)", "Coagulation factor XI (Homo sapiens)", 6.69),
]

A = C[C@H]1COC(=O)Nc2cccc(c2)CNC(=O)C(Nc2ccc3c(N)nccc3c2)c2ccc1cc2 (some centres not stated)
B = COC(=O)Nc1ccc2c(c1)NC(=O)CCc1nc(ccc1F)C[C@H](NC(=O)/C=C/c1cc(Cl)ccc1-n1cnnn1)c1nc-2c[nH]1
Lower value of pKi belongs to which: A or B ? Mark your answer with the label of the selected entry.
A
